- Test system: HEK-293T
- experiment_notes: Multiplex assay against HEK293T
- Type: toxicity, cell-based
- particulars: human, 48 h, 10 µM, compound concentration 10 uM, replicate 2
test_readout: Population Fragmented Nuclei (%)
Number plus unit, in that order.

These solved cases illustrate the format of a correct answer.
Which Population Fragmented Nuclei (%) is listed for "CC1(COc2ccc3c(c2)ncn3-c2ccc3cccc(N4CCC(N)CC4)c3n2)COC1" ? 47%

Which Population Fragmented Nuclei (%) value belongs to Cc1ccc(C(C)(O)c2nc3ccccc3s2)c(C)c1 (stereo not given) ? 13%

What does the record list as Population Fragmented Nuclei (%) for "O=C1COc2nccc(-c3ccccc3F)c2CN1Cc1cc(C(F)(F)F)cc(C(F)(F)F)c1" ? 11%

Quick one: Population Fragmented Nuclei (%) for COc1ccc2c(c1)C(C(=O)N(Cc1ccc(N(C)C)cc1)c1ccc(C(C)C)cc1)CCC2.Cl (stereo not given) ? 11%

Then there is this molecule:
# Population Fragmented Nuclei (%) lookup, item "O=C(O)Cc1ccccc1Nc1c(Cl)cccc1Cl" 16%
